Target Desc: CDK7/CycH/MNAT1 (Homo sapiens (Human), UniProt P50613)
Sequence (P50613 whole entry): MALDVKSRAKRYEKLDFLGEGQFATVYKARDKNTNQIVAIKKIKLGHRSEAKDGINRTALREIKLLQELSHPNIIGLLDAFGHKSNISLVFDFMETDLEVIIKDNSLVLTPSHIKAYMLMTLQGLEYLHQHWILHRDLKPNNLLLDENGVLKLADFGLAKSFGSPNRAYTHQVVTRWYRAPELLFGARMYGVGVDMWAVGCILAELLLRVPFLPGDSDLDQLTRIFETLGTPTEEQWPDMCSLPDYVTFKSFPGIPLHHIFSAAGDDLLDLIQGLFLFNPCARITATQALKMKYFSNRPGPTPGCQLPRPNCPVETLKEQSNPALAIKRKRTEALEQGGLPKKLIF
Sequence (P51946 whole entry partner): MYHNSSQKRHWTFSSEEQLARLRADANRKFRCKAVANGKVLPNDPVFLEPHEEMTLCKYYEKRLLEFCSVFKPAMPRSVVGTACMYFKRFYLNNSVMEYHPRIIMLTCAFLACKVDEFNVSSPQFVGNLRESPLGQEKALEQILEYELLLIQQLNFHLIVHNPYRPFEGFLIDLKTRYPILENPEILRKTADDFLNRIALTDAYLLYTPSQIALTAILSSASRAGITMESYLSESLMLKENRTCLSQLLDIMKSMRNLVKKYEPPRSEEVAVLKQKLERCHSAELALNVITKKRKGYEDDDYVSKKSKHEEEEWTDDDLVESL
Sequence (P51948 whole entry partner): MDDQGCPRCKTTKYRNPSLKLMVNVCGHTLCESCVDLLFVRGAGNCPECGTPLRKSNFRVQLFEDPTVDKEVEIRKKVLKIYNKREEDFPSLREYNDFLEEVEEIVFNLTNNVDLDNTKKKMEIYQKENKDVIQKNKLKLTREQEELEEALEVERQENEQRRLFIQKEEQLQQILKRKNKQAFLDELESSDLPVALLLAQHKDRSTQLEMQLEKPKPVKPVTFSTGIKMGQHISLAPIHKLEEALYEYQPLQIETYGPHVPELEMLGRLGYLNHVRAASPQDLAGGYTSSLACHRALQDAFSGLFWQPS
Procedure Text: Biochemical assay for CDK7 (TR-FRET kinase assay)
Settings: 10 μM compound; 60 min pre-incubation; 1 mM ATP; read-out: % inhibition @ 10 μM
Known inhibition at 10 µM of a selection of compounds
Expressed in %, but write only the number.

A selection of reference data follows.
| Compound | Target Desc | inhibition at 10 µM, % |
| --- | --- | --- |
| CC(C)c1cnn2c(NCc3ccccc3N3CCN(C(=O)/C=C/CN(C)C)CC3)nc(NC3CCOCC3)nc12 | CDK7/CycH/MNAT1 (Homo sapiens (Human), UniProt P50613) | 99 |
| C=CC(=O)N[C@H]1CC[C@@H](C(=O)Nc2cccc(CNc3nc(NC4CCCC(O)C4)nc4c(C(C)C)cnn34)c2)CC1 (single isomer, unassigned) | CDK7/CycH/MNAT1 (Homo sapiens (Human), UniProt P50613) | 89 |
| C=CC(=O)NC1CCCC(C(=O)Nc2cccc(CNc3nc(OC4CCN(C)CC4)nc4c(C(C)C)cnn34)c2)C1 (stereo not shown) | CDK7/CycH/MNAT1 (Homo sapiens (Human), UniProt P50613) | 97 |
| C=CC(=O)N1CCCCC1C(=O)Nc1cccc(CNc2nc(NC3CCOCC3)nc3c(C(C)C)cnn23)c1F (stereo not shown) | CDK7/CycH/MNAT1 (Homo sapiens (Human), UniProt P50613) | 99 |
| CC(C)c1cnn2c(NC(C)c3cccc(NC(=O)C4CCCN(C(=O)/C=C/CN(C)C)C4)c3)nc(NC3CCOCC3)nc12 (stereo not shown) | CDK7/CycH/MNAT1 (Homo sapiens (Human), UniProt P50613) | 84 |

[ask] Check CDK7/CycH/MNAT1 (Homo sapiens (Human), UniProt P50613) data and give inhibition at 10 µM for C#CC(=O)N1CCC1C(=O)Nc1cccc(CNc2nc(NC3CCOCC3)nc3c(C(C)C)cnn23)c1 (stereo not shown) .
[reply] 98

[ask] Check CDK7/CycH/MNAT1 (Homo sapiens (Human), UniProt P50613) data and give inhibition at 10 µM for C=CC(=O)N1CCC(C(=O)Nc2cccc(CNc3nc(OC4CCN(C)CC4)nc4c(C(C)C)cnn34)c2)C1 (stereo not shown) [Compound 108] .
[reply] 99

----------
Test system: RNA polymerase II CTD phosphorylation (MDA-MB-231/NCI-H358 cells)
Procedure Text: Inhibition of RNA polymerase II CTD phosphorylation in cell western assay
Type: cell-based
Settings: 4 hours incubation, phospho RNA Pol II Ser-5 or Ser-2
Known EC50 of a selection of compounds

A selection of reference data follows.
| Compound | EC50 |
| --- | --- |
| C=CC(=O)N[C@H]1CC[C@@H](C(=O)Nc2cccc(CNc3nc(OC4CCN(C)CC4)nc4c(C(C)C)cnn34)c2)CC1 | ≤ 1000 nM |
| C=CC(=O)N1CCC(C(=O)Nc2cccc(CNc3nc(OC4CCN(C)CC4)nc4c(C(C)C)cnn34)c2)CC1 | 1000 to 10000 nM |
| C=CC(=O)N1CCC(C(=O)Nc2cccc(CNc3nc(NC4CCCC(O)C4)nc4c(C(C)C)cnn34)c2)C1 (single isomer, unassigned) | 1000 to 10000 nM |
| C=CC(=O)N1CCC(C(=O)Nc2cccc(CNc3nc(OCCCCN)nc4c(C(C)C)cnn34)c2)CC1 | 1000 to 10000 nM |
| C=CC(=O)N1CCC(C(=O)Nc2cccc(CNc3nc(NC4CCOCC4)nc4c(C(C)C)cnn34)c2)C1 (stereo not shown) [Compound 4] | ≤ 1000 nM |

[ask] Provide one value: measured EC50 of C=CC(=O)N1CCCC(NC(=O)c2cccc(Nc3nc(OC4CCN(C)CC4)nc4c(C(C)C)cnn34)c2)C1 (stereo not shown)
[reply] 1000 to 10000 nM

[ask] Provide one value: measured EC50 of C=CC(=O)N1CCC(C(=O)Nc2cccc(CNc3nc(NC4CCOCC4)nc4c(C(C)C)cnn34)c2)C1 (single isomer, unassigned) [Compound 6]
[reply] 1000 to 10000 nM

----------
Target Desc: CDK7/CycH/MNAT1 (Homo sapiens (Human), UniProt P50613)
Procedure Text: Biochemical assay for CDK7 (TR-FRET kinase assay)
Settings: 10 μM compound; 60 min pre-incubation; 1 mM ATP; read-out: % inhibition @ 10 μM
Measurement Type: inhibition at 10 µM
Please report the result as a number followed by the unit.

[ask] Check CDK7/CycH/MNAT1 (Homo sapiens (Human), UniProt P50613) data and give inhibition at 10 µM for C=CC(=O)N1CCCC(C(=O)Nc2cccc(C(C)Nc3nc(NC4CCOCC4)nc4c(C(C)C)cnn34)c2)C1 (stereo not shown) .
[reply] 73%

[ask] Check CDK7/CycH/MNAT1 (Homo sapiens (Human), UniProt P50613) data and give inhibition at 10 µM for C=CC(=O)NC(C)C(=O)Nc1cccc(CNc2nc(NC3CCOCC3)nc3c(C(C)C)cnn23)c1 (stereo not shown) .
[reply] 94%

[ask] Check CDK7/CycH/MNAT1 (Homo sapiens (Human), UniProt P50613) data and give inhibition at 10 µM for C=CC(=O)N1CCOCC1C(=O)Nc1ccc(CC)c(CNc2nc(NC3CCOCC3)nc3c(C(C)C)cnn23)c1 (stereo not shown) .
[reply] 95%

[ask] Check CDK7/CycH/MNAT1 (Homo sapiens (Human), UniProt P50613) data and give inhibition at 10 µM for `CC(C)c1cnn2c(NCc3cccc(NC(=O)[C@H]4CC[C@@H](NC/C=C/C(=O)N(C)C)CC4)c3)nc(OC3CCN(C)CC3)nc12` .
[reply] 97%

----------
Target Desc: CDK7/CycH/MNAT1 (Homo sapiens (Human), UniProt P50613)
Procedure Text: Biochemical assay for CDK7 (TR-FRET kinase assay)
Settings: 10 μM compound; 60 min pre-incubation; 1 mM ATP; read-out: % inhibition @ 10 μM
Measurement Type: inhibition at 10 µM
Please report the result as a number followed by the unit.

A selection of reference data follows.
| Molecule | inhibition at 10 µM |
| --- | --- |
| C=CC(=O)N[C@H]1CC[C@@H](C(=O)Nc2cccc(CNc3nc(NC4CCOCC4)nc4c(C(C)C)cnn34)c2F)CC1 | 95% |
| C=CC(=O)N1CCOC(C(=O)Nc2cccc(CNc3nc(OC4CCN(C)CC4)nc4c(C(C)C)cnn34)c2)C1 (stereo not shown) | 99% |
| C=CC(=O)N1CCN(C(=O)Oc2cccc(CNc3nc(NC4CCOCC4)nc4c(C(C)C)cnn34)c2)CC1 | 98% |
| C=CC(=O)NC1CCCC(C(=O)Nc2cccc(CNc3nc(NC4CCOCC4)nc4c(C(C)C)cnn34)c2)C1 (stereo not shown) | 98% |
| C=CC(=O)N[C@H]1CC[C@@H](C(=O)Nc2ccc(F)c(CNc3nc(NC4CCOCC4)nc4c(C(C)C)cnn34)c2)CC1 | 76% |
| CC(C)c1cnn2c(NCc3cccc(NC(=O)/C=C/CN4CCOCC4)c3)nc(NC3CCOCC3)nc12 | 91% |
| C=CC(=O)Nc1ccc(C(=O)Nc2cccc(Nc3nc(OC4CCN(C)CC4)nc4c(C(C)C)cnn34)c2)cc1 | 86% |
| C=CC(=O)N1CCC(C(=O)Nc2cccc(CNc3nc(OCC(C)C)nc4c(C(C)C)cnn34)c2)C1 (stereo not shown) | 82% |
| CC(C)c1cnn2c(NCc3ccc(F)c(NC(=O)[C@H]4CC[C@@H](NC(=O)/C=C/CN(C)C)CC4)c3)nc(OC3CCN(C)CC3)nc12 | 94% |
| C=CC(=O)Nc1cccc(C(=O)Nc2cccc(CNc3nc(NC4CCOCC4)nc4c(C(C)C)cnn34)c2)c1 | 100% |

[ask] Provide one value: measured inhibition at 10 µM of `C=CC(=O)N1CCC[C@H](NC(=O)c2cccc(CNc3nc(NC4CCOCC4)nc4c(C(C)C)cnn34)c2)C1`
[reply] 92%

[ask] Provide one value: measured inhibition at 10 µM of COC/C=C/C(=O)N1CCC(C(=O)Nc2cccc(CNc3nc(NC4CCOCC4)nc4c(C(C)C)cnn34)c2)C1 (stereo not shown)
[reply] 92%

[ask] Provide one value: measured inhibition at 10 µM of `C=CC(=O)N1CCC(C(=O)Nc2cccc(CNc3nc(OC4CCN(C)CC4)nc4c(C(C)C)cnn34)c2)CC1`
[reply] 95%

[ask] Provide one value: measured inhibition at 10 µM of C=CC(=O)N1CCCC(C(=O)Nc2cccc(C(C)Nc3nc(OC4CCN(C)CC4)nc4c(C(C)C)cnn34)c2)C1 (stereo not shown)
[reply] 99%

[ask] Provide one value: measured inhibition at 10 µM of C=CC(=O)N1CCCC(C(=O)Nc2cccc(CNc3nc(OC4CCN(C)CC4)nc4ccnn34)c2)C1 (stereo not shown)
[reply] 38%

[ask] Provide one value: measured inhibition at 10 µM of C=CC(=O)N1CCC(C(=O)Nc2cccc(CNc3nc(NC4CCCC(N)C4)nc4c(C(C)C)cnn34)c2)C1 (stereo not shown)
[reply] 98%

[ask] Provide one value: measured inhibition at 10 µM of `C=CC(=O)NC1(C(=O)Nc2cccc(CNc3nc(NC4CCOCC4)nc4c(C(C)C)cnn34)c2)CC1`
[reply] 96%

[ask] Provide one value: measured inhibition at 10 µM of `CC(C)c1cnn2c(NCc3cc(F)cc(NC(=O)/C=C/CN4CCOCC4)c3)nc(NC3CCOCC3)nc12`
[reply] 76%

[ask] Provide one value: measured inhibition at 10 µM of CC(C)c1cnn2c(Nc3cccc(NC(=O)C4CCC(NC(=O)/C=C/CN(C)C)CC4)c3)nc(OC3CCN(C)CC3)nc12 (stereo not shown)
[reply] 86%

[ask] Provide one value: measured inhibition at 10 µM of `CC(C)c1cnn2c(NCc3cccc(NC/C=C/C(=O)N(C)C)c3)nc(NC3CCOCC3)nc12`
[reply] 84%

[ask] Provide one value: measured inhibition at 10 µM of `C=CC(=O)N[C@H]1CC[C@@H](C(=O)Nc2cc(CNc3nc(OC4CCN(C)CC4)nc4c(C(C)C)cnn34)ccc2F)CC1`
[reply] 93%
